I'd appreciate it if you could supply TGI values for the items below.
Tested on: NCI/ADR-RES ovarian
Measurement notes: NCI tumour cell line growth inhibition, 48 h

Suppose we examine the compound Oc1ccccc1C1=NOC(c2ccc(C(F)(F)F)cc2)C1 (stereo not drawn) ; what TGI value has been reported?
> 50 µM

Suppose we examine the compound O=C(N/N=C/c1ccccc1O)c1ccccc1Nc1ccccc1C(=O)N/N=C/c1ccccc1O ; what TGI value has been reported?
5.44 µM

Suppose we examine the compound C/C=C/[C@H]1O[C@@H]2C(=C[C@H]1O)C(=O)O[C@H]2C ; what TGI value has been reported?
> 57 µM

Suppose we examine the compound CN(C)CCn1c(=O)c2ccc3c4c(nn3CCN(C)C)c3cc([N+](=O)[O-])ccc3n(c1=O)c24 ; what TGI value has been reported?
0.701 µM

Suppose we examine the compound Cc1sc(C)c2c1C(=O)CC2N (stereo not drawn) ; what TGI value has been reported?
> 100 µM

Suppose we examine the compound CN1CCN(Cc2ccc(NC(=O)c3cncc(C#Cc4cncc5nccnc45)c3)cc2C(F)(F)F)CC1 ; what TGI value has been reported?
25.1 µM

Suppose we examine the compound Cc1ccc(N2CCN(CCC(=O)O)CC2)cc1 ; what TGI value has been reported?
> 100 µM

Suppose we examine the compound O=C(O)C1(Cc2ccc3c(c2)CCC3)Cc2ccccc2C1 ; what TGI value has been reported?
> 100 µM

###

I'd appreciate it if you could supply TGI values for the items below.
Tested on: SNB-75 CNS
Measurement notes: NCI tumour cell line growth inhibition, 48 h

Suppose we examine the compound COc1ccc(/C=C2/NC(=S)N=C2Cl)cc1 ; what TGI value has been reported?
> 100 µM

Suppose we examine the compound CCOC(=O)c1c(-c2ccc(Br)cc2)ccn1C ; what TGI value has been reported?
> 10 µM

Suppose we examine the compound NC(Cc1ccc(S(=O)(=O)O)cc1)C(=O)NC(Cc1ccc(S(=O)(=O)O)cc1)C(=O)NC(Cc1ccc(S(=O)(=O)O)cc1)C(=O)O (stereo not given) ; what TGI value has been reported?
> 100 µM

Suppose we examine the compound Cc1ccn2c(CCc3nnc4cc(C)ccn34)nnc2c1 ; what TGI value has been reported?
> 100 µM

Suppose we examine the compound NC(=O)C(=O)C(c1ccccc1)S(=O)(=O)Cc1ccccc1 (stereo not given) ; what TGI value has been reported?
> 100 µM

###

Test system: HOP-62 NSCLC
Measurement notes: NCI tumour cell line growth inhibition, 48 h
Assay readout: TGI (µM)
Give your result in µM as a bare value.

Suppose we examine the molecule O=C1N[C@@H]2c3c(Br)sc(Br)c3C(=O)[C@@H]2O1 ; what TGI value has been reported?
42.7

Suppose we examine the molecule CCCCN(CCCC)CCC(O)c1cc2c(Cl)cc(Cl)cc2c2cc(C(F)(F)F)ccc12 (configuration not stated) ; what TGI value has been reported?
21.9

Suppose we examine the molecule COC(=O)[C@@H](Cc1ccccc1)N1O[C@]12CCCC[C@@H]2NC(=O)OC(C)(C)C (some centres not stated) ; what TGI value has been reported?
38.2

Suppose we examine the molecule CCCCOCc1cc(CN2CCN(C)CC2)c(O)c2ncccc12 ; what TGI value has been reported?
41.8

Suppose we examine the molecule CC1Cc2cc(O)c(O)cc2-c2cc(O)c(O)cc2CC1C (configuration not stated) ; what TGI value has been reported?
41.9

Suppose we examine the molecule CC(C)C(C/C=C1/CC(CO)(COC(=O)c2ccccc2)OC1=O)C(C)C (configuration not stated) ; what TGI value has been reported?
22.4

Suppose we examine the molecule Cc1cc(N2CCCC2)nc(NCc2cc(Nc3ccnc4cc(Cl)ccc34)ccc2F)n1 ; what TGI value has been reported?
3.14

Suppose we examine the molecule CN1CCN(c2nc(NCCCNc3ccnc4cc(Cl)ccc34)c3ccccc3n2)CC1 ; what TGI value has been reported?
11.6

Suppose we examine the molecule O=S(=O)(c1ccccc1)n1cc(C[P+](c2ccccc2)(c2ccccc2)c2ccccc2)c2ccccc21 ; what TGI value has been reported?
12.6

###

System: SNB-19 CNS
Measurement notes: NCI tumour cell line growth inhibition, 48 h
I'd appreciate it if you could supply GI50 values for the items below.

Query for SNB-19 CNS: what GI50 does the record show for CN(C)CC(C(=O)Cc1ccccc1)c1ccccc1 (stereo not drawn) ?
15 µM

Query for SNB-19 CNS: what GI50 does the record show for C[n+]1c(-c2ccc(/C=N/NC(=O)c3ccc(C(=O)N/N=C/c4ccc(-c5cn6ccccc6[n+]5C)cc4)cc3)cc2)cn2ccccc21 ?
248 µM

Query for SNB-19 CNS: what GI50 does the record show for COc1cc2ncnc(Nc3ccc4c(cnn4Cc4ccccc4)c3)c2cc1OC ?
> 25 µM

###

I'd appreciate it if you could supply GI50 values for the items below.
Tested on: OVCAR-3 ovarian
Measurement notes: NCI tumour cell line growth inhibition, 48 h

Suppose we examine the molecule c1cncc(C2Nc3cccc4cccc(c34)N2)c1 ; what GI50 value has been reported?
17.8 µM

Suppose we examine the molecule CCC(=O)Nc1ccccc1C#C/C=C\C#Cc1ccccc1C(F)(F)F ; what GI50 value has been reported?
2.4 µM

Suppose we examine the molecule CCCCC(=O)N/N=C/c1c(O)ccc2ccccc12 ; what GI50 value has been reported?
0.423 µM

Suppose we examine the molecule COC(=O)/C=C1/SC(N2N=C(c3cccs3)CC2c2ccc(F)cc2)=NC1=O (stereo not given) ; what GI50 value has been reported?
2.19 µM

Suppose we examine the molecule C[n+]1c(-c2ccc(/C=N/NC(=O)c3ccc(C(=O)N/N=C/c4ccc(-c5cn6ccccc6[n+]5C)cc4)cc3)cc2)cn2ccccc21 ; what GI50 value has been reported?
> 1000 µM

###

System: KM12 colon
Measurement notes: NCI tumour cell line growth inhibition, 48 h
I'd appreciate it if you could supply TGI values for the items below.
Give your result in µM as a bare value.

Suppose we examine the compound COc1cccc2c1C(=O)c1c(O)c3c(c(O)c1C2=O)C[C@@](O)(C(=O)CO)CC3OC1CC(O)C(O)C(C)O1 (some centres undefined) ; what TGI value has been reported?
7.49

Suppose we examine the compound CC(C)C(C/C=C1/CC(CO)(COC(=O)c2ccccc2)OC1=O)C(C)C (centres undefined) ; what TGI value has been reported?
31.7

###

I'd appreciate it if you could supply TGI values for the items below.
Test system: OVCAR-4 ovarian
Measurement notes: NCI tumour cell line growth inhibition, 48 h

Suppose we examine the molecule CCCCN[C@H]1C2C3CC4C5CC(C42)C1(C)C53 (stereo partly specified) ; what TGI value has been reported?
> 100 µM

Suppose we examine the molecule Clc1ccc(-c2ccc(-c3nnc(COc4ccc(OCc5nnc(-c6ccc(-c7ccc(Cl)cc7Cl)o6)o5)c(Cl)c4)o3)o2)c(Cl)c1 ; what TGI value has been reported?
> 100 µM

Suppose we examine the molecule Cc1[nH]nc2c1N=C(c1ccccc1F)c1cc(C(N)=O)ccc1N2 ; what TGI value has been reported?
> 25 µM

Suppose we examine the molecule CCCCOCc1cc(CN2CCN(C)CC2)c(O)c2ncccc12 ; what TGI value has been reported?
> 100 µM

Suppose we examine the molecule Cc1ccc(-c2cc(=O)c3cc(C)c(C)c(C(=O)O)c3o2)cc1N ; what TGI value has been reported?
> 100 µM

Suppose we examine the molecule CCCCCCCCCCCCOc1ccc(/C=C/C2=[N+](CCCl)CCO2)cc1 ; what TGI value has been reported?
> 100 µM

###

Tested on: SF-268 CNS
Measurement notes: NCI tumour cell line growth inhibition, 48 h
Where a SMILES comes first, the peptide text is derived from it.
I'd appreciate it if you could supply TGI values for the items below.

Suppose we examine the molecule O=C(O)CNn1c(SCC(=O)O)nnc(/C=C/c2c(O)ccc3ccccc23)c1=O ; what TGI value has been reported?
97.3 µM

Suppose we examine the molecule CC12CO[C@@](C)(CC(S(=O)(=O)c3ccccc3)C1)O2 (stereo partly drawn) ; what TGI value has been reported?
> 100 µM

Suppose we examine the molecule O=C1Nc2ccccc2/C1=C\c1nc(C2CCN(S(=O)(=O)c3ccc(F)cc3)CC2)n2ccccc12 ; what TGI value has been reported?
13.8 µM

Suppose we examine the molecule Oc1ccc(CCNCc2cc3c(cc2Br)OCO3)cc1 ; what TGI value has been reported?
> 100 µM

Suppose we examine the molecule COc1ccc(/C=C2\CN(Cc3cn(CCNc4ccnc5cc(Cl)ccc45)nn3)C/C(=C\c3ccc(OC)c(OC)c3)C2=O)cc1OC ; what TGI value has been reported?
21.5 µM

Suppose we examine the molecule CC(C)CC(NC(=O)C(Cc1ccccc1)NC(=O)C(Cc1c[nH]c2ccccc12)NC(=O)CNC(=O)C(N)Cc1ccc(O)cc1)C(=O)O (stereo not drawn) (H-YGWFL-OH; configuration not given here) ; what TGI value has been reported?
> 100 µM

Suppose we examine the molecule Nc1nc(N)c2c(n1)NC(c1ccccc1)C1CCc3ccccc3C1=N2 (stereo not drawn) ; what TGI value has been reported?
20 µM

Suppose we examine the molecule [O-][N+]1=NC(c2ccccc2)=C1c1ccccc1 ; what TGI value has been reported?
> 50 µM

Suppose we examine the molecule CCCCOCc1cc(CN2CCN(C)CC2)c(O)c2ncccc12 ; what TGI value has been reported?
> 100 µM

Suppose we examine the molecule CCOc1ccc(N=NS(=O)(=O)O)cc1 ; what TGI value has been reported?
> 100 µM

Suppose we examine the molecule Oc1cccc(/C=N/Nc2nnc(N/N=C/c3cccc(O)c3)c3ccccc23)c1 ; what TGI value has been reported?
> 100 µM

Suppose we examine the molecule N#Cc1nc(-c2ccccn2)oc1N ; what TGI value has been reported?
> 100 µM

Suppose we examine the molecule CC(C)(C)c1cc(OCc2nnc3sc(=S)[nH]n23)c(Cl)cc1OCc1nnc2sc(=S)[nH]n12 ; what TGI value has been reported?
> 100 µM

Suppose we examine the molecule Cc1ccc(N2CCN(CCC(=O)O)CC2)cc1 ; what TGI value has been reported?
> 100 µM

Suppose we examine the molecule C=C(CC(=O)O)C(=O)O (tested in a mixture with another compound) ; what TGI value has been reported?
> 50 µg/mL

Suppose we examine the molecule Cc1sc(C)c2c1C(=O)CC2N (stereo not drawn) ; what TGI value has been reported?
> 57.3 µM

Suppose we examine the molecule NCCCCC(=O)c1cccnc1 ; what TGI value has been reported?
> 100 µM

Suppose we examine the molecule COC(=O)C(CBr)CBr ; what TGI value has been reported?
41.9 µM

Suppose we examine the molecule COc1cc(Nc2nnc3n2S(=O)(=O)c2cc(C)c(Cl)cc2S3)cc(OC)c1 ; what TGI value has been reported?
50.7 µM

Suppose we examine the molecule COC(=O)c1ccccc1/C=C1\Cc2c(C)cc(C)cc2C1=O ; what TGI value has been reported?
> 100 µM

Suppose we examine the molecule Cc1cc(N2CCCC2)nc(NCc2cc(Nc3ccnc4cc(Cl)ccc34)ccc2F)n1 ; what TGI value has been reported?
3.14 µM

Suppose we examine the molecule CC1Cc2cc(O)c(O)cc2-c2cc(O)c(O)cc2CC1C (stereo not drawn) ; what TGI value has been reported?
> 100 µM

Suppose we examine the molecule CC1(C)C2CC3C4CC5(Nc6ccccc6C5N41)[C@]3(C)CC2=O (stereo partly drawn) ; what TGI value has been reported?
> 50 µM

Suppose we examine the molecule Cc1ccc(C2=Nc3c(N)ncnc3NC(c3ccc4c(c3)OCO4)C2)cc1 (stereo not drawn) ; what TGI value has been reported?
16.3 µM

Suppose we examine the molecule N#Cc1c(O)c(N=Nc2ccc(Cl)cc2)c(=O)n2c1[nH]c1ccccc12 ; what TGI value has been reported?
> 100 µM

Suppose we examine the molecule CC1(C)OCC([C@H]2CC23SCCCS3)O1 (stereo partly drawn) ; what TGI value has been reported?
> 100 µM

Suppose we examine the molecule CN(C)CC1CCCCCCCCCC(CN(C)C)C1=O (stereo not drawn) ; what TGI value has been reported?
> 53.9 µM

Suppose we examine the molecule COC1=CC(=O)c2c(c(COP(=O)(N(C)CCBr)N(C)CCBr)cn2C)C1=O ; what TGI value has been reported?
1.75 µM

Suppose we examine the molecule O=C(CN1CCOCC1)c1ccc2c(c1)oc(=O)n2CCN1CCCC1 ; what TGI value has been reported?
> 100 µM

Suppose we examine the molecule Fc1cccc(Cl)c1C1SCc2nc3cc4ccccc4cc3n21 (stereo not drawn) ; what TGI value has been reported?
> 100 µM

Suppose we examine the molecule C=CC/C(=C\COP(=O)(OCc1ccc([N+](=O)[O-])o1)N(C)CCCCCl)CC/C=C(\C)CCC=C(C)C (stereo not drawn) ; what TGI value has been reported?
29 µM

Suppose we examine the molecule Cc1ccc(-c2cc(=O)c3cc(C)c(C)c(C(=O)O)c3o2)cc1N ; what TGI value has been reported?
> 100 µM

Suppose we examine the molecule COC(=O)C1=C(C(=O)OC)SC(=C2S[C@@H]3[C@@H]4C[C@H]([C@@H]3S2)[C@H]2C(=O)OC(=O)[C@@H]42)S1 ; what TGI value has been reported?
> 100 µM
